Provenance of the data: patent US20110118447A1

biological target: binding partner of C5A (XPA23); assay: Biacore
The entries below come with measured fold difference in affinity vs original values attached.
METRIC_NAME: fold difference in affinity vs original (fold)

C5A (XPA23) VH S105A (antibody, V domains shown) VH: EVQLLESGGGLVQPGGSLRLSCAASGFTFSKYFMFWVRQAPGKGLEWVSVISPSGGMTRYADSVKGRFTISRDNSKNTLYLQMNSLRAEDTAVYYCARVGYGGNADYWGQGTLVTVSS VL: DIQMTQSPSSVSASVGDRLTIICRASQDINRWLAWYQQTPGNAPKLLIHSATSLQSGVPSRFSGSGSGTDFTLTINSLQPEDFATYYCQQADSFPLTFGGGTKVEIK; 0.84
C5A (XPA23) VH S105T (antibody, V domains shown) VH: EVQLLESGGGLVQPGGSLRLSCAASGFTFSKYFMFWVRQAPGKGLEWVSVISPSGGMTRYADSVKGRFTISRDNSKNTLYLQMNSLRAEDTAVYYCARVGYGGNTDYWGQGTLVTVSS VL: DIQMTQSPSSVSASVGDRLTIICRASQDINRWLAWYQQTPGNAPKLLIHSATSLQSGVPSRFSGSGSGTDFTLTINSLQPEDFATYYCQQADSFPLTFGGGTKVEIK; 0.11
